Listed here: items and their measured inhibition at 0.3 mg/kg.
System: IL-1β p17
Protocol notes: Rat central nervous system IL-1β production test
Format: in vivo
Conditions used: Wistar rat, oral, Dose 0.3 mg/kg, cerebrospinal fluid, LPS + BzATP in cisterna magna; read-out: percent inhibition of IL-1β p17 relative to the solvent-treated group
Quantity measured: inhibition at 0.3 mg/kg (%)

> print(dat)
                                   compound  unit.abbrev  reported.measurement
1  Oc1cc(C(F)(F)F)ccc1-c1nnc(N[C@@H]2CCCC[C@H]2O)c2c1CCCC2 [Example 1]            %                   -12
2  CN1CCC[C@@H](Nc2nnc(-c3ccc(OC(F)F)cc3O)c3c2COCC3)C1 [Example 124]            %                    49
3  Oc1cc(C(F)(F)F)ccc1-c1nnc(N[C@@H]2CCCC[C@H]2O)c2c1CCOC2 [Example 2(1)]            %                    81
4  Oc1cc(OC(F)(F)F)ccc1-c1nnc(N[C@@H]2CCCC[C@H]2O)c2c1CCOC2 [Example 3(1)]            %                    75
